The measurements presented in this section are drawn from PubChem BioAssay AID1159580.

test: chemical genetic growth profiling, strain panel (AID 1159580);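 note: tested at 20 µM; growth read once vehicle control cultures reached saturation at 30 °C; 1 = growth at the plate median or of vehicle wells; lower values mean less growth of the strain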; conditions: S. cerevisiae deletion strains, growth OD, locus YNL298W, strain CLA4, stronger effect = lower value
Among all 5,500 compounds or so, about 2,000 (36%) were called active. Not shown: some 18% with an inconclusive outcome. Some of the results follow.
Here the recorded normalized growth is given for each entry.
Respond with the number and no other words.

As a guide, the following entries are already answered.
# compound, normalized growth
data = [
    ("CN(C)c1nc(N(C)C)nc(N(C)C)n1", 1.02),
    ("CC(=O)OC1CCC2C3CCc4cc(O)ccc4C3CCC12C (stereo not given)", 0.973),
    ("CCCc1nc(C(C)(C)O)c(C(=O)OCc2oc(=O)oc2C)n1Cc1ccc(-c2ccccc2-c2nn[nH]n2)cc1", 0.975),
    ("CN1CCN(C(c2ccccc2)c2ccccc2)CC1", 0.975),
]

So, COc1cc(O)c(C(C)=O)c(OC)c1 ? Its normalized growth was 1

So, N#Cc1ccc2c(c1)N(CCCN1CCC(O)CC1)c1ccccc1S2 ? Its normalized growth was 1.02

So, C[C@]12CCC3c4ccc(O)cc4CCC3C1CC[C@@H]2OC(=O)CCC1CCCC1 (stereo not given in full) ? Its normalized growth was 0.999

----------
Here the recorded normalized growth is given for each entry.
assay: chemical genetic growth profiling, strain panel (AID 1159580);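 note: tested at 20 µM; growth read once vehicle control cultures reached saturation at 30 °C; 1 = growth at the plate median or of vehicle wells; lower values mean less growth of the strain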; conditions: S. cerevisiae deletion strains, growth OD, locus YIL073C, strain SPO22, stronger effect = lower value
In all, about 5,500 compounds went through this assay and about 2,000 (36%) were called active. About 18% were inconclusive and are not listed. Some of the results follow.
Respond with the number and no other words.

As a guide, the following entries are already answered.
# compound, dataValue
data = [
    ("Cn1cnc([N+](=O)[O-])c1Sc1ncnc2nc[nH]c12", 1.02),
    ("O=c1ccc2cc(O[C@@H]3O[C@H](CO)[C@@H](O)[C@H](O)[C@H]3O)c(O)cc2o1", 1.02),
    ("COC(=O)C[C@H]1C(C)(C)[C@@H](OC(C)=O)[C@@H]2CC3C4CC(=O)O[C@@H](c5ccoc5)[C@]4(C)CCC3[C@@]1(C)C2=O (some centres undefined)", 1.01),
    ("CC(C)=CCOc1c2occc2cc2ccc(=O)oc12", 0.792),
    ("CC1(C)C=Cc2c(cc3occ(-c4ccc5c(c4)OCO5)c(=O)c3c2O)O1", 0.886),
    ("COc1cc(OC)cc(OC)c1", 1),
    ("COc1ccc2ccc(=O)oc2c1CC=C(C)C", 0.85),
    ("COc1ccc2[nH]cc(CCNC(C)=O)c2c1", 1.08),
]

So, COc1ccc(Cc2nccc3cc(OC)c(OC)cc23)cc1OC ? Its normalized growth was 0.957

So, c1ccc2c(c1)[nH]c1cnccc12 ? Its normalized growth was 0.995

So, Cc1cccc(N(C)C(=S)Oc2ccc3ccccc3c2)c1 ? Its normalized growth was 0.964

So, COc1cc2ccc(=O)oc2cc1O ? Its normalized growth was 1.01

So, COc1cc2ccc(=O)oc2c(O)c1O ? Its normalized growth was 0.997

So, O=C1OC(=O)C2C3CCC(O3)C12 (centres undefined) ? Its normalized growth was 1.02

----------
Here the recorded normalized growth is given for each entry.
experiment: chemical genetic growth profiling, strain panel (AID 1159580);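 note: tested at 20 µM; growth read once vehicle control cultures reached saturation at 30 °C; 1 = growth at the plate median or of vehicle wells; lower values mean less growth of the strain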; settings: S. cerevisiae deletion strains, growth OD, locus YMR263W, strain SAP30, stronger effect = lower value
Hit rate of the full screen: of about 5,500 compounds, about 2,000 (36%) were called active. Not shown: some 18% with an inconclusive outcome. Some of the results follow.
Respond with the number and no other words.

# compound, normalized growth
measured = [
    ("COc1cc2ccc(=O)oc2c2ccoc12", 0.976),
    ("CCS(=O)(=O)CCn1c([N+](=O)[O-])cnc1C", 1.02),
    ("CC(C)=CCC1=C(O)c2ccccc2C(=O)C1=O", 1.01),
    ("O=C(O)c1cc2cc(Cl)ccc2[nH]1", 1.02),
    ("CC(=O)c1csc([N+](=O)[O-])c1", 1.01),
]

So, Cc1ccc(/C(C#N)=C2C=C/C(=N/O)C(Cl)=C\2Cl)cc1 ? Its normalized growth was 0.984
